systemUnderTest: Jak2 (UniProt O60674)
Sequence (O60674 whole entry, looked up): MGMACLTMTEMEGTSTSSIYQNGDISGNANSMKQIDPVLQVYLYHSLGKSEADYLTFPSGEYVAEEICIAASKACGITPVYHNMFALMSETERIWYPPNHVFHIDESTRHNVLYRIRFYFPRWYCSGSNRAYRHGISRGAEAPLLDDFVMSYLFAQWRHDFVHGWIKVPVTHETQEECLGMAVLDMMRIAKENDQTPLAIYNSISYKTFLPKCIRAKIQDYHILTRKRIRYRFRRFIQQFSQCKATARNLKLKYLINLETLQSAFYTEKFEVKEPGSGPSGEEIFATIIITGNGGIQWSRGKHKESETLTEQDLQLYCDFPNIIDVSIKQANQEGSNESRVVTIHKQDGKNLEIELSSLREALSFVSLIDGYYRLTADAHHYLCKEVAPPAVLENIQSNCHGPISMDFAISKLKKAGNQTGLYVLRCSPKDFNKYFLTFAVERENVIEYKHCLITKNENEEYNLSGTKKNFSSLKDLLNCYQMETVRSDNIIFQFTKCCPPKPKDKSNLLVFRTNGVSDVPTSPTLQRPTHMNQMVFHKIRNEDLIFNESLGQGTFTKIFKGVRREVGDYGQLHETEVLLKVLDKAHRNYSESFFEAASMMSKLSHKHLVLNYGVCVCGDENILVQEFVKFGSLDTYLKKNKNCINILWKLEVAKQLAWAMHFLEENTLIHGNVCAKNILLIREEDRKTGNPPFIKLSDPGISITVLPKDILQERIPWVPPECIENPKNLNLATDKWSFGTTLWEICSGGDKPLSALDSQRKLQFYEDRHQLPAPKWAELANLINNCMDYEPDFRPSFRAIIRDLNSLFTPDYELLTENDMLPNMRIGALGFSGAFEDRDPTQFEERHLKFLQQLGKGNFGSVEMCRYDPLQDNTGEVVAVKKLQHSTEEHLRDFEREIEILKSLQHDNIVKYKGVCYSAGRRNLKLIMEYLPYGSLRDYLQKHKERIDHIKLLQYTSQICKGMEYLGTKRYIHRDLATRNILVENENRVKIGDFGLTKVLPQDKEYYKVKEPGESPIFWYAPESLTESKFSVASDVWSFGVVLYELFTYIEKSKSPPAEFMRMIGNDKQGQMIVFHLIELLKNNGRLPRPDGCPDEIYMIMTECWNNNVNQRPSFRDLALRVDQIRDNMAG
assaySummary: phosphorylation enrichment, bacterial display (enrichment ratio); higher = better substrate or ligand; peptides without Tyr show the background;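 note: 11-residue human phosphosite peptides and single-mutation variants displayed on the E. coli surface, counted by deep sequencing, each peptide's frequency after selection divided by its frequency in the unselected input library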;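 note: frequency after pTyr selection over input frequency; kinase dosed for 20-30% of maximal phosphorylation in three min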
resultType: phosphorylation enrichment
Reply: number alone, nothing else.

I am curious: what phosphorylation enrichment value has been reported for EVTQDYGLDPK [FH_Y110_N107T] ?
1.06

Entry VVLGSYDRLRV [IFT172_Y260] has what phosphorylation enrichment?
0.546

Given the sequence IQKKYYRAILE [CHD7_Y1218] , what is its reported phosphorylation enrichment?
0.563

# get_value(readout='phosphorylation enrichment', item= EKLIQYCQSKS [AKR1B1_Y199_G204S] )
0.562

Need phosphorylation enrichment, item KPEKTYGLRNE [CEP43_Y267_K271N]
0.512

Recorded phosphorylation enrichment of FGVTLYPNSRE [MEP1A_Y472] , please.
0.92

Dear colleague, I am looking for the recorded phosphorylation enrichment of the following sequence: CQAHGYSCQLI [STK11_Y156_F157S]
0.556

Need phosphorylation enrichment of GLRYGYGGLGG [KRTAP20-2_Y15_V17G] , thanks.
0.44

Which phosphorylation enrichment reading was recorded for the sequence TQTPPYVKKHR [LARP1B_Y457_P462R] ?
1.04

For EGNERYEGYCV [GRIA3_Y451] , what is its reported phosphorylation enrichment?
0.944

Could you tell me which phosphorylation enrichment is on file for GFQPEYGQPAG [SYP_Y278_D277E_YF] ?
0.723

Item under review: IIGNGYYFHVF [MYBPC3_Y1135_R1138H] . Reported phosphorylation enrichment?
1.19

Endpoint output: phosphorylation enrichment of LVTCSYLLGNS [LMNA_Y646_R644C] . Value?
2.94

State the recorded phosphorylation enrichment for this entry: QEMMEYRHQIQ [DES_Y324]
2.03

Item ALAHKYPGGGG [HBB_Y146_H147P] has what recorded phosphorylation enrichment?
0.262

For the sequence shown here, QAKRKYQEASK [FES_Y156] , give the reported phosphorylation enrichment.
0.429

Which value of phosphorylation enrichment has been reported for VNFGAYINDFK [GLB1_Y488_YF] in the records?
0.83

Which phosphorylation enrichment is listed for ERIEFYELDKK [PMM2_Y145] ?
0.892

Look up phosphorylation enrichment: RNGNRYFKGIV [DCX_Y64_D62N]
1.02

// query phosphorylation enrichment value for entry QFFQSYFNNNF [ZNF236_Y644]
1.6

Entry EADRKYEEVAC [TPM3_Y163_R168C] : reported phosphorylation enrichment = ?
1.04

Recorded phosphorylation enrichment of DTNIAYCLHPR [POMT1_Y581_W582C] , please.
0.754

Name the recorded phosphorylation enrichment for TLDTDYQMTKR [ADA_Y308] .
0.632

What does the data say about its phosphorylation enrichment? Entry: RLLRGYNQSAF [HLA-C_Y137_D138N_YF]
0.476

// query phosphorylation enrichment value for entry SVTCTYSAALN [TP53_Y126_P128A]
1.41

Looking for the measured phosphorylation enrichment of ETKGDYEKILV [ANXA1_Y335] , can you help?
1.01

Field request: phosphorylation enrichment | item: GELQGYDIMEP [MSH2_Y863_S860L]
1.13

I have this sequence here, VRFVDYVLFRS [FAM189B_Y361_S358F] , and I need its recorded phosphorylation enrichment.
1.01

Any idea what its phosphorylation enrichment is? The sequence is KVITDYYVDMK [MPP4_Y566]
1.4

Values compiled from the supplement of paper PMC10065799.
